These data points were gathered from ChEMBL document CHEMBL3593172.

- Experimental Details: cells
- Condition Set: Homo sapiens, MIA PaCa-2, 48 h
- Description: Cytotoxicity against human MIAPaCa2 cells assessed as inhibition of cell proliferation after 48 hrs by MTT assay
Property: IC50 (µM)
Numeric answer only, unit µM assumed.

CC(=O)Nc1ccc(S(=O)(=O)N(c2ccccc2)c2ccnc3ccc(-c4ccc(O)cc4)cc23)cc1: 7

Entry under test: N#Cc1ccc(S(=O)(=O)N(c2ccccc2)c2ccnc3ccc(-c4ccc(O)cc4)cc23)cc1 . Its IC50 was 78

Entry under test: O=[N+]([O-])c1ccc(S(=O)(=O)N(c2ccccc2)c2ccnc3ccc(-c4ccc(O)cc4)cc23)cc1 . Its IC50 was 25

###

Listing: inhibition of growth at 10 µM of selected compounds
- Tested on: HCT-116
- Experimental Details: Cytotoxicity against human HCT116 cells assessed as growth inhibition at 10 uM after 24 to 48 hrs by MTT assay relative to control
- Assay type: functional
- Condition Set: read-out: GI

Some entries whose results are on file:
CC(=O)Nc1ccc(S(=O)(=O)N(c2ccccc2)c2ccnc3ccc(-c4ccc(O)cc4)cc23)cc1: 19%
Cc1c(C)c(C)c(S(=O)(=O)N(c2ccccc2)c2ccnc3ccc(-c4ccc(O)cc4)cc23)c(C)c1C: 14%
Nc1ccc(S(=O)(=O)N(c2ccccc2)c2ccnc3ccc(-c4ccc(O)cc4)cc23)cc1: 33%

Next up:
Entry under test: COc1ccc(-c2ccc3nccc(Nc4ccccc4)c3c2)cc1 . Its inhibition of growth at 10 µM was 16%

###

- Test system: HCT-116
- Experimental Details: Cytotoxicity against human HCT116 cells assessed as growth inhibition at 10 uM after 24 to 48 hrs by MTT assay relative to control
- Format: functional
- Condition Set: read-out: GI
Listing: inhibition of growth at 10 µM of selected compounds
Numeric answer only, unit % assumed.

Some entries whose results are on file:
O=S(=O)(c1ccc(F)cc1F)N(c1ccccc1)c1ccnc2ccc(-c3ccc(O)cc3)cc12: 2
Cc1ccc(S(=O)(=O)N(c2ccccc2)c2ccnc3ccc(-c4ccc(O)cc4)cc23)cc1: 21
O=C(c1cccnc1Cl)N(c1ccccc1)c1ccnc2ccc(-c3ccc(O)cc3)cc12: 29
O=S(=O)(c1ccc(Br)cc1)N(c1ccccc1)c1ccnc2ccc(-c3ccc(O)cc3)cc12: 9

The compound COc1ccc(S(=O)(=O)N(c2ccccc2)c2ccnc3ccc(-c4ccc(O)cc4)cc23)cc1 , when measured on HCT-116, yielded inhibition of growth at 10 µM of 10

###

Listing: inhibition of growth at 100 µM of selected molecules
- Test system: HCT-116
- Experimental Details: Cytotoxicity against human HCT116 cells assessed as growth inhibition at 100 uM after 24 to 48 hrs by MTT assay relative to control
- Assay type: functional
- Condition Set: read-out: GI
Write the numeric value and append its unit.

Nc1ccc(S(=O)(=O)N(c2ccccc2)c2ccnc3ccc(-c4ccc(O)cc4)cc23)cc1: 88%
N#Cc1ccc(S(=O)(=O)N(c2ccccc2)c2ccnc3ccc(-c4ccc(O)cc4)cc23)cc1: 36%
O=S(=O)(c1ccc(Br)cc1)N(c1ccccc1)c1ccnc2ccc(-c3ccc(O)cc3)cc12: 73%
COc1ccc(-c2ccc3nccc(Nc4ccccc4)c3c2)cc1: 77%
Oc1ccc(-c2ccc3nccc(Nc4ccccc4)c3c2)cc1: 86%

The molecule O=S(=O)(c1ccc2c(c1)OCCO2)N(c1ccccc1)c1ccnc2ccc(-c3ccc(O)cc3)cc12 , when measured on HCT-116, yielded inhibition of growth at 100 µM of 68%

The molecule O=[N+]([O-])c1ccc(S(=O)(=O)N(c2ccccc2)c2ccnc3ccc(-c4ccc(O)cc4)cc23)cc1 , when measured on HCT-116, yielded inhibition of growth at 100 µM of 58%

The molecule O=S(=O)(c1ccccc1)N(c1ccccc1)c1ccnc2ccc(-c3ccc(O)cc3)cc12 , when measured on HCT-116, yielded inhibition of growth at 100 µM of 89%

The molecule O=S(=O)(c1ccc(F)cc1F)N(c1ccccc1)c1ccnc2ccc(-c3ccc(O)cc3)cc12 , when measured on HCT-116, yielded inhibition of growth at 100 µM of 58%

###

- Test system: HL-60
- Experimental Details: Cytotoxicity against human HL60 cells assessed as growth inhibition at 100 uM after 24 to 48 hrs by MTT assay relative to control
- Format: functional
- Condition Set: read-out: GI
Property: inhibition of growth at 100 µM

N#Cc1ccc(S(=O)(=O)N(c2ccccc2)c2ccnc3ccc(-c4ccc(O)cc4)cc23)cc1: 78%
O=[N+]([O-])c1cc(S(=O)(=O)N(c2ccccc2)c2ccnc3ccc(-c4ccc(O)cc4)cc23)ccc1C(F)(F)F: 93%
O=S(=O)(c1ccc2c(c1)OCCO2)N(c1ccccc1)c1ccnc2ccc(-c3ccc(O)cc3)cc12: 90%
O=[N+]([O-])c1ccc(S(=O)(=O)N(c2ccccc2)c2ccnc3ccc(-c4ccc(O)cc4)cc23)cc1: 89%
CC(=O)Nc1ccc(S(=O)(=O)N(c2ccccc2)c2ccnc3ccc(-c4ccc(O)cc4)cc23)cc1: 94%
O=C(c1ccccc1F)N(c1ccccc1)c1ccnc2ccc(-c3ccc(O)cc3)cc12: 94%
CC(C)(C)c1ccc(S(=O)(=O)N(c2ccccc2)c2ccnc3ccc(-c4ccc(O)cc4)cc23)cc1: 93%
O=S(=O)(c1ccc(F)cc1)N(c1ccccc1)c1ccnc2ccc(-c3ccc(O)cc3)cc12: 79%

Entry under test: O=S(=O)(c1ccc(Br)cc1)N(c1ccccc1)c1ccnc2ccc(-c3ccc(O)cc3)cc12 . Its inhibition of growth at 100 µM was 87%

Entry under test: Oc1ccc(-c2ccc3nccc(Nc4ccccc4)c3c2)cc1 . Its inhibition of growth at 100 µM was 82%

Entry under test: O=S(=O)(c1ccc(F)cc1F)N(c1ccccc1)c1ccnc2ccc(-c3ccc(O)cc3)cc12 . Its inhibition of growth at 100 µM was 89%

###

- Experimental Details: Cytotoxicity against human MIAPaCa2 cells assessed as growth inhibition at 100 uM after 24 to 48 hrs by MTT assay relative to control
- Assay type: functional
- Condition Set: MIA PaCa-2, read-out: GI
Could you label it True if measured inhibition of growth at 100 µM is 80% or higher, and False otherwise?

Exercise: Threshold query (inhibition of growth at 100 µM >= 80%) on Oc1ccc(-c2ccc3nccc(Nc4ccccc4)c3c2)cc1
Solution: True

Exercise: Threshold query (inhibition of growth at 100 µM >= 80%) on O=S(=O)(c1ccccc1)N(c1ccccc1)c1ccnc2ccc(-c3ccc(O)cc3)cc12
Solution: True

###

- Tested on: HCT-116
- Experimental Details: Cytotoxicity against human HCT116 cells assessed as growth inhibition at 100 uM after 24 to 48 hrs by MTT assay relative to control
- Assay type: functional
- Condition Set: read-out: GI
Could you label it Criterion met if measured inhibition of growth at 100 µM is 80% or higher, and Criterion not met otherwise?

The following compounds have reported results that may help.
CC(=O)Nc1ccc(S(=O)(=O)N(c2ccccc2)c2ccnc3ccc(-c4ccc(O)cc4)cc23)cc1: Criterion not met
O=[N+]([O-])c1cc(S(=O)(=O)N(c2ccccc2)c2ccnc3ccc(-c4ccc(O)cc4)cc23)ccc1C(F)(F)F: Criterion not met
Cc1c(C)c(C)c(S(=O)(=O)N(c2ccccc2)c2ccnc3ccc(-c4ccc(O)cc4)cc23)c(C)c1C: Criterion not met
CC(C)(C)c1ccc(S(=O)(=O)N(c2ccccc2)c2ccnc3ccc(-c4ccc(O)cc4)cc23)cc1: Criterion met
O=S(=O)(c1ccc(F)cc1)N(c1ccccc1)c1ccnc2ccc(-c3ccc(O)cc3)cc12: Criterion met
O=C(c1cccnc1Cl)N(c1ccccc1)c1ccnc2ccc(-c3ccc(O)cc3)cc12: Criterion met

Attention now shifts to the item below.
Exercise: Threshold query (inhibition of growth at 100 µM >= 80%) on O=C(c1ccccc1F)N(c1ccccc1)c1ccnc2ccc(-c3ccc(O)cc3)cc12
Solution: Criterion met

###

- Tested on: HCT-116
- Experimental Details: Cytotoxicity against human HCT116 cells assessed as growth inhibition at 10 uM after 24 to 48 hrs by MTT assay relative to control
- Type: functional
- Condition Set: read-out: GI
Property: inhibition of growth at 10 µM (%)
Numeric answer only, unit % assumed.

Some entries whose results are on file:
O=S(=O)(c1ccccc1)N(c1ccccc1)c1ccnc2ccc(-c3ccc(O)cc3)cc12: 8
O=[N+]([O-])c1ccc(S(=O)(=O)N(c2ccccc2)c2ccnc3ccc(-c4ccc(O)cc4)cc23)cc1: 2
O=C(c1ccccc1F)N(c1ccccc1)c1ccnc2ccc(-c3ccc(O)cc3)cc12: 26
Oc1ccc(-c2ccc3nccc(Nc4ccccc4)c3c2)cc1: 8
O=S(=O)(c1ccc(F)cc1)N(c1ccccc1)c1ccnc2ccc(-c3ccc(O)cc3)cc12: 20

Entry under test: N#Cc1ccc(S(=O)(=O)N(c2ccccc2)c2ccnc3ccc(-c4ccc(O)cc4)cc23)cc1 . Its inhibition of growth at 10 µM was 5

Entry under test: O=S(=O)(c1ccc2c(c1)OCCO2)N(c1ccccc1)c1ccnc2ccc(-c3ccc(O)cc3)cc12 . Its inhibition of growth at 10 µM was 17

Entry under test: CC(C)(C)c1ccc(S(=O)(=O)N(c2ccccc2)c2ccnc3ccc(-c4ccc(O)cc4)cc23)cc1 . Its inhibition of growth at 10 µM was 20

Entry under test: O=[N+]([O-])c1cc(S(=O)(=O)N(c2ccccc2)c2ccnc3ccc(-c4ccc(O)cc4)cc23)ccc1C(F)(F)F . Its inhibition of growth at 10 µM was 20
